This collection of values is drawn from ChEMBL document CHEMBL1125715.

target: Serotonin 3 (5-HT3) receptor (Rattus norvegicus, UniProt P35563+Q9JJ16); assay: Displacement of [3H]-Q-ICS 205-930 binding to 5-hydroxytryptamine 3 receptor recognition sites in rat brain membranes.; assay type: cell membranes
Sequence (P35563 whole entry): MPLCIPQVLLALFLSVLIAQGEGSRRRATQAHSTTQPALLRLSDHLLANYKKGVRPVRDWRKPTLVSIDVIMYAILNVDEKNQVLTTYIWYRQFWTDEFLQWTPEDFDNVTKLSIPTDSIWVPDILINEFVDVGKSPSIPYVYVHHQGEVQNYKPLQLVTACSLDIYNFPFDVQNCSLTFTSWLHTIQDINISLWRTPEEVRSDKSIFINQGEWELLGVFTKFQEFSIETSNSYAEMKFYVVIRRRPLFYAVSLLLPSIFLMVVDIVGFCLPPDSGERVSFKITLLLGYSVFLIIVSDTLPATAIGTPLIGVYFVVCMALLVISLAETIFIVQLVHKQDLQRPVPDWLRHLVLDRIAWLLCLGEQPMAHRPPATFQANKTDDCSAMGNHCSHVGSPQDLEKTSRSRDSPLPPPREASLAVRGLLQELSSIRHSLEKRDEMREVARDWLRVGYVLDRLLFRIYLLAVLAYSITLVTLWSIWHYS
Sequence (Q9JJ16 whole entry): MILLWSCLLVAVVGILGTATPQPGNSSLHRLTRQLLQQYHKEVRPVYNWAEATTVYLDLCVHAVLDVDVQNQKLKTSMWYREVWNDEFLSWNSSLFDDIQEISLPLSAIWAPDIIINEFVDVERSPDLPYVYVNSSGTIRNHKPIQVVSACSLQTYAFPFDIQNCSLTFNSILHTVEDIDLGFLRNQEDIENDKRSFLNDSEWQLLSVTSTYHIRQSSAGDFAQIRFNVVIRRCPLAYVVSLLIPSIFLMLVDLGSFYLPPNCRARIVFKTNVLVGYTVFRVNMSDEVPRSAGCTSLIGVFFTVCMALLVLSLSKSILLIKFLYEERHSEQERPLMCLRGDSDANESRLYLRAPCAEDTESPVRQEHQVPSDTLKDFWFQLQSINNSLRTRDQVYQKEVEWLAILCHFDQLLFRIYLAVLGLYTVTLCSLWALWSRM
// NB: equality with 0.2 µM counts as Not satisfied; only IC50 strictly below is Satisfied

# Compound, Label Class
data = [
    ("CN(C)CCc1nc(-c2cn(C)c3ccccc23)no1", "Satisfied"),
    ("c1ccc2ncc(-c3noc(C4CN5CCC4CC5)n3)cc2c1 (configuration not stated)", "Not satisfied"),
    ("Cn1cc(-c2noc(C3CC4CCC3NC4)n2)c2ccccc21 (stereo in doubt; 12t)", "Satisfied"),
    ("Cn1cc(-c2noc(C[N+](C)(C)C)n2)c2ccccc21", "Satisfied"),
    ("CN(C)Cc1nc(-c2cn(C)c3ccccc23)no1", "Satisfied"),
    ("Cn1cc(-c2noc(CN)n2)c2ccccc21", "Not satisfied"),
    ("c1ccc2[nH]c(-c3noc(C4CN5CCC4CC5)n3)cc2c1 (configuration not stated)", "Not satisfied"),
    ("Cn1cc(-c2noc(CCN3CCCCC3)n2)c2ccccc21", "Not satisfied"),
    ("CNCc1nc(-c2cn(C)c3ccccc23)no1", "Not satisfied"),
    ("Cn1c(-c2noc(C3CN4CCC3CC4)n2)cc2ccccc21 (configuration not stated)", "Not satisfied"),
    ("Cn1cc(-c2noc(C3CC4CCN3CC4)n2)c2ccccc21 (configuration not stated)", "Satisfied"),
    ("COc1ccc(-c2noc(C3CN4CCC3CC4)n2)cc1 (configuration not stated)", "Not satisfied"),
    ("COc1cccc(-c2noc(C3CN4CCC3CC4)n2)c1 (configuration not stated)", "Satisfied"),
    ("c1cncc(-c2noc(C3CN4CCC3CC4)n2)c1 (configuration not stated)", "Not satisfied"),
    ("c1ccc2cc(-c3noc(C4CN5CCC4CC5)n3)ccc2c1 (configuration not stated)", "Not satisfied"),
    ("Oc1ccccc1-c1noc(C2CN3CCC2CC3)n1 (configuration not stated)", "Satisfied"),
    ("Cn1cc(-c2noc(C3CN4CCC3CC4)n2)c2cc(F)ccc21 (configuration not stated)", "Satisfied"),
    ("c1ccc2c(-c3noc(C4CN5CCC4CC5)n3)cccc2c1 (configuration not stated)", "Satisfied"),
    ("Cn1cc(-c2noc(C34CCN(CC3)CC4)n2)c2ccccc21", "Satisfied"),
    ("Cn1cc(-c2noc(C3CN4CCC3C4)n2)c2ccccc21 (stereo in doubt; 12u)", "Satisfied"),
    ("c1ccc2c(-c3noc(C4CN5CCC4CC5)n3)[nH]nc2c1 (configuration not stated)", "Satisfied"),
    ("Cc1cccc2c(-c3noc(C4CN5CCC4CC5)n3)cn(C)c12 (configuration not stated)", "Satisfied"),
    ("Oc1ccc(-c2noc(C3CN4CCC3CC4)n2)cc1 (configuration not stated)", "Satisfied"),
    ("Cn1cc(-c2noc(C3=CCCNC3)n2)c2ccccc21", "Not satisfied"),
    ("Cn1cc(-c2noc(C3CN4CCC3C4)n2)c2ccccc21 (stereo in doubt; 12v)", "Satisfied"),
    ("CN1CC2CCC1C(c1nc(-c3cn(C)c4ccccc34)no1)C2 (stereo in doubt; 12y)", "Not satisfied"),
]
